target: GlunN1/GluN2A glutamate receptors (Homo sapiens (Human), UniProt Q05586+Q12879); experiment: Whole-cell patch clamp of mammalian cells (Ionworks Barracuda), positive allosteric modulation, GluN1/GluN2A; format: cell-based
Sequence (Q12879 23-1464, other chains not shown): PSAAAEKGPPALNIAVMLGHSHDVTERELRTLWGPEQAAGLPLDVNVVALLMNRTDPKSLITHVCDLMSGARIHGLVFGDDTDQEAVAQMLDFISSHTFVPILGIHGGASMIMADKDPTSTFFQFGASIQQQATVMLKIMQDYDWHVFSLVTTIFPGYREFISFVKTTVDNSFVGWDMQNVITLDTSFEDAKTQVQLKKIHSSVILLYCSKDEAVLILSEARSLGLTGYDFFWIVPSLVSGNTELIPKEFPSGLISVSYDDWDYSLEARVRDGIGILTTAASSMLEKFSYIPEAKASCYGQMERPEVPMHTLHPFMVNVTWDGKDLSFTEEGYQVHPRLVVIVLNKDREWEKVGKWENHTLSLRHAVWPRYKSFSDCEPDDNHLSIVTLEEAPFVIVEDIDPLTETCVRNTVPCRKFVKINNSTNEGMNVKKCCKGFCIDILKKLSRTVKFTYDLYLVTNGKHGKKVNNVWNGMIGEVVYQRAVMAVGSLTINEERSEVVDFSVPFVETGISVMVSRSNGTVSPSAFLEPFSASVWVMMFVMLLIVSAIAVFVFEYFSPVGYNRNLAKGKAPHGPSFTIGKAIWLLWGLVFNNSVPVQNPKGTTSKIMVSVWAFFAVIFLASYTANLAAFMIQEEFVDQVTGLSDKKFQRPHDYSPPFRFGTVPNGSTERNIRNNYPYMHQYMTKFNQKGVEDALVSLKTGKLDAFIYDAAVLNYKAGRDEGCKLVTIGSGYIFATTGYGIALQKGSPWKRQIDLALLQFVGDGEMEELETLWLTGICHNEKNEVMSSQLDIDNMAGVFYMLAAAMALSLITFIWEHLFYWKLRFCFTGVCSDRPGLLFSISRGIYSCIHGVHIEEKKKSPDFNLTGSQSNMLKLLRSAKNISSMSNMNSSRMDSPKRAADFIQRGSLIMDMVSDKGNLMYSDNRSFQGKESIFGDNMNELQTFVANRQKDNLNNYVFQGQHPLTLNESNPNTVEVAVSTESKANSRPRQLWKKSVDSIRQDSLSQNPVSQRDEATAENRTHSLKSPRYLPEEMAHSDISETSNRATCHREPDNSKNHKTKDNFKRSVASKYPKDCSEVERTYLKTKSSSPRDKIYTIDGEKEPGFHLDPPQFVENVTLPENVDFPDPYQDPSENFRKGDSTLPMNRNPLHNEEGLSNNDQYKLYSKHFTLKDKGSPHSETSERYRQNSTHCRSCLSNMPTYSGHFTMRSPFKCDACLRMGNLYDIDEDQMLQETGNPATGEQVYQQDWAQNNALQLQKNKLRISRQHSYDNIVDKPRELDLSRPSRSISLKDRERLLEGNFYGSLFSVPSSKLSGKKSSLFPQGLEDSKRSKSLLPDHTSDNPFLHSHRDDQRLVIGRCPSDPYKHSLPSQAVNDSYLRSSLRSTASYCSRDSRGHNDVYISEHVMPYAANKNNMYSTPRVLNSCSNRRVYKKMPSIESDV
Reported pEC50 values for the following molecules.
Friendly reminder that pEC50 comes from taking -log10 of the concentration in mol/L.

| Molecule | pEC50 |
| --- | --- |
| CC[C@]1(O)CC[C@@]2(C)[C@@H](CC[C@@H]3[C@@H]2CC[C@]2(C)[C@@H]([C@H](C)CCC(O)c4ccccc4)CC[C@@H]32)C1 (some centres unmarked) | 6.25 |

Problem: Please look at CO[C@H]1CC[C@](O)(CC[C@@H](C)[C@H]2CC[C@H]3[C@@H]4CC[C@H]5C[C@](O)(C(F)(F)F)CC[C@]5(C)[C@H]4CC[C@]23C)CC1 and tell me its recorded pEC50 on GlunN1/GluN2A glutamate receptors (Homo sapiens (Human), UniProt Q05586+Q12879).
Result: 6.67

Problem: Identify measured pEC50 obtained with GlunN1/GluN2A glutamate receptors (Homo sapiens (Human), UniProt Q05586+Q12879) for CC[C@]1(O)CC[C@@]2(C)C(=CC[C@H]3[C@@H]4CC[C@H]([C@H](C)CC[C@@H](O)c5ccccc5F)[C@@]4(C)CC[C@@H]32)C1 .
Result: 7.02

Problem: Write down measured pEC50 (GlunN1/GluN2A glutamate receptors (Homo sapiens (Human), UniProt Q05586+Q12879)) for this molecule. CC[C@]1(O)CC[C@H]2C(=CC[C@@H]3[C@@H]2CC[C@]2(C)[C@@H]([C@H](C)CCC4(O)CC4)CC[C@@H]32)C1
Result: 6.28

Problem: Tell me pEC50 of C[C@H](CCC(O)C(C)(C)C)[C@H]1CC[C@H]2[C@@H]3CC[C@H]4C[C@](O)(C(F)(F)F)CC[C@]4(C)[C@H]3CC[C@]12C (some centres unmarked) when tested on GlunN1/GluN2A glutamate receptors (Homo sapiens (Human), UniProt Q05586+Q12879).
Result: 6.73

---

Molecular target: GluN2B glutamate receptors (Homo sapiens (Human), UniProt Q05586+Q13224)
Sequence (Q13224 27-1484, other chains not shown): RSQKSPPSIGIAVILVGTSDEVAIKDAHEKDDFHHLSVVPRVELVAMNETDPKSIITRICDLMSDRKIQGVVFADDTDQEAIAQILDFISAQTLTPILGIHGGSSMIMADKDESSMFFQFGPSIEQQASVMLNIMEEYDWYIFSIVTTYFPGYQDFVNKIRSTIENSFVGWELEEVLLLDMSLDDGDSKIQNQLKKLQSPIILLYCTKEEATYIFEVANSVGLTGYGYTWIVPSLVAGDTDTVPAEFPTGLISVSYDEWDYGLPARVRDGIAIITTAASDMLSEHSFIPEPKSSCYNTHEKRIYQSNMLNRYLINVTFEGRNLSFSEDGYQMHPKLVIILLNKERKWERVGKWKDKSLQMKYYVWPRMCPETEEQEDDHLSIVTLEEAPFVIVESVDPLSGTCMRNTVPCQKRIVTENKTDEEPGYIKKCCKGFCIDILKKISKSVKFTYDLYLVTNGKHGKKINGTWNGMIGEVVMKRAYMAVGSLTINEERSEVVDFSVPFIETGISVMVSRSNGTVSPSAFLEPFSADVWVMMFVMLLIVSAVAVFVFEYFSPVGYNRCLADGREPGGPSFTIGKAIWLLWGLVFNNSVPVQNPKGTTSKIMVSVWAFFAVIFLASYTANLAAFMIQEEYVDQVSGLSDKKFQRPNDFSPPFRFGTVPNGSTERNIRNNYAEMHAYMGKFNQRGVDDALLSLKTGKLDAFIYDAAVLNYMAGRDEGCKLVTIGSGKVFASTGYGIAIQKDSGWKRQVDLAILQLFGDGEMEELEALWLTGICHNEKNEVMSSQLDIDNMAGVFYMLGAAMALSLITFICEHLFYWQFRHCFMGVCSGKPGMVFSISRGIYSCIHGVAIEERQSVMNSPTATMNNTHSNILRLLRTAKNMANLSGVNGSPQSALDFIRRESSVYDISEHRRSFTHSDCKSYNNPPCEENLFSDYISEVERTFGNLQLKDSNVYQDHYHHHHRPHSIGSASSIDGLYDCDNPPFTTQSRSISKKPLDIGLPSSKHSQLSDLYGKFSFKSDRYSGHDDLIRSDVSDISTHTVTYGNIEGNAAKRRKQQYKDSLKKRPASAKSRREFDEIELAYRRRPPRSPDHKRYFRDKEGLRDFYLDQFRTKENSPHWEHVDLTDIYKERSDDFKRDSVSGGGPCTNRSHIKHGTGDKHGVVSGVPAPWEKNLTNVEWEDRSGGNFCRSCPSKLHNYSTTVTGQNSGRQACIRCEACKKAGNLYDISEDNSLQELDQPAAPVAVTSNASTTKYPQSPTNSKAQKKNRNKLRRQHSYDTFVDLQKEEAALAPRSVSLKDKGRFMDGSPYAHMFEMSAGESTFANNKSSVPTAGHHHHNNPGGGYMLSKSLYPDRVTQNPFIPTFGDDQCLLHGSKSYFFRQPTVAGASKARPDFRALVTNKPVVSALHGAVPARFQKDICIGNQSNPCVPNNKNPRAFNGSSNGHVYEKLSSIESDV
Test: Whole-cell patch clamp of mammalian cells (Ionworks Barracuda), positive allosteric modulation, GluN2B
Format: cell-based
Method: The measurements were performed using Ion Works Barracuda platform following this procedure: Electrophysiological Procedures: • a) Intracellular solution (mM): 50 mM CsCl, 90 mM CsF, 2 mM MgCl2, 5 mM EGTA, 10 mM HEPES. Adjust to pH 7.2 with CsOH. • b) Extracellular solution, HB-PS (composition in mM): NaCl, 137; KCl, 1.0; CaCl2), 5; HEPES, 10; Glucose, 10; pH adjusted to 7.4 with NaOH (refrigerated until use). • c) Holding potential: −70 mV, potential during agonist/PAM application: −40 mV. […]
Recorded Endpoint: EC50

These recorded examples may help you get a feel for the data.
| Compound | EC50 |
| --- | --- |
| C[C@H](CC[C@@]1(O)CCOC1)[C@H]1CC[C@H]2[C@@H]3CC[C@H]4C[C@](O)(C(F)(F)F)CC[C@]4(C)[C@H]3CC[C@]12C [Compound 2706] | 124 nM |
| CC(C)[C@@H](O)CC[C@@H](C)[C@H]1CC[C@H]2[C@@H]3CC[C@H]4C[C@](O)(C(F)(F)F)CC[C@]4(C)[C@H]3CC[C@]12C [Compound 2A] | 339 nM |
| CC[C@]1(O)CC[C@H]2C(=CC[C@@H]3[C@@H]2CC[C@]2(C)[C@@H]([C@H](C)CCC4(O)CC4)CC[C@@H]32)C1 [Compound 8245] | 268 nM |
| C[C@H](CC[C@@H](O)C(F)(F)F)[C@H]1CC[C@H]2[C@@H]3CC[C@H]4C[C@](O)(C(F)(F)F)CC[C@]4(C)[C@H]3CC[C@]12C [Compound 5] | 260 nM |

Next item in the queue.
Problem: Jot down EC50 (GluN2B glutamate receptors (Homo sapiens (Human), UniProt Q05586+Q13224)) of C[C@H](CCC1(O)CCC2(CC1)CC2)[C@H]1CC[C@H]2[C@@H]3CC[C@H]4C[C@](O)(C(F)(F)F)CC[C@]4(C)[C@H]3CC[C@]12C [Compound 4805] .
Result: 362 nM
